Assay: NCI Yeast Anticancer Drug Screen. Data for the rad50 strain (AID 155);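 note: 0% = growth of vehicle-only cultures of the same strain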
Conditions: S. cerevisiae rad50 strain growth inhibition; at 50.0 µM; stronger effect = higher value
The panel holds about 79,000 compounds, 15% with a hit somewhere; the sample as a whole holds those more often. Where a SMILES comes first, the peptide text is derived from it. [ ]: non-standard residue; d: D form. ξ: configuration not given here. ξPhe(4-N(CH2CH2Cl)2) = NC(Cc1ccc(N(CCCl)CCCl)cc1)C(=O)O
Overview of reported growth inhibition across a group of molecules:
Please respond with the number in % and leave the unit unwritten.

Completed entries (count: 3):
Using the record for CCOC(=O)C(Cc1ccc(N(CCCl)CCCl)cc1)NC(=O)C(Cc1ccccc1)NC(=O)C(NC(=O)CNC(=O)C1CCCN1)C(C)C (configuration not stated) (H-PGVF[ξPhe(4-N(CH2CH2Cl)2)]-OEt; configuration not given here) , state its measured growth inhibition. -4.6

Using the record for COc1ccc(Oc2cc3c(cc2OC)CCN(C)C3)cc1 , state its measured growth inhibition. 15.9

Using the record for Cn1cc(C(=O)C[n+]2ccccc2)c2ccccc21 , state its measured growth inhibition. -20.4

Continuing:
Using the record for CCC1CN(CC(=O)c2ccc(Br)cc2)CCO1 (configuration not stated) , state its measured growth inhibition. 5.4

Using the record for c1ccc(CCN2CCCCC2)cc1 , state its measured growth inhibition. 23.2

Using the record for O=[C-]CC(=O)c1ccccc1.O=[C-]CC(=O)c1ccccc1.[Fe+2] , state its measured growth inhibition. -7.85

Using the record for C/C=C\C(C)=C/C(C)C(=O)CC(O)CC1CC(=O)NC(=O)C1 (configuration not stated) , state its measured growth inhibition. 11.6

Using the record for O=C(NCC(O)CO)c1cc(N(CCCl)CCCl)c([N+](=O)[O-])cc1[N+](=O)[O-] (configuration not stated) , state its measured growth inhibition. 3.8

Using the record for CCCC/C=C/C=C/C=C/CCCCCCCC(=O)OCC(COC(=O)CCCCCCC/C=C/C1C=CC(CCCC)C(C(=O)O)C1C(=O)O)OC(=O)CCCCCCC/C=C/C=C/C=C/CCCC (configuration not stated) (tested in a mixture with another compound) , state its measured growth inhibition. -10.8

Using the record for O=c1[nH]cc([N+](=O)[O-])cc1[N+](=O)[O-] , state its measured growth inhibition. 1.5

----------
Overview of reported growth inhibition across a group of compounds:
Assay: NCI Yeast Anticancer Drug Screen. Data for the sgs1 mgt1 strain (AID 161);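 note: 0% = growth of cultures given vehicle only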
Conditions: S. cerevisiae sgs1 mgt1 strain, at 50.0 µM, stronger effect = higher value
This is part of a sample that, as a whole, favours compounds with a hit. Of some 79,000 tested, about 15% had one in any assay.
Please respond with the number in % and leave the unit unwritten.

Using the record for O=C(O)C(O)CO.[Pb] (centres undefined) , state its measured growth inhibition. -2.5

Using the record for O=NNc1cccnc1 , state its measured growth inhibition. -2.35

Using the record for O=C(CP(=O)(O)O)c1cccs1 , state its measured growth inhibition. -28

Using the record for COC(=O)/C=C/[C@H]1[C@H](C)N1S(=O)(=O)c1ccc(C)cc1 (some centres undefined) , state its measured growth inhibition. 14.8

Using the record for Cc1ccc(S(=O)(=O)OC2CN3CCC2CC3)cc1 (centres undefined) , state its measured growth inhibition. 42.7

Continuing:
Using the record for Cc1ccc(C)c(OP(=O)(Oc2cc(C)ccc2C)Oc2cc(C)ccc2C)c1 , state its measured growth inhibition. -15.6

Using the record for C/C=C(\C)C1(CC)C(=O)NC(=O)N(C)C1=O (centres undefined) , state its measured growth inhibition. 3.3

----------
Experiment: NCI Yeast Anticancer Drug Screen. Data for the rad50 strain (AID 155);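 note: 0% = growth of vehicle-only cultures of the same strain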
Details: S. cerevisiae rad50 strain growth inhibition; at 50.0 µM; stronger effect = higher value
Compounds without any hit were thinned out: in the full panel of roughly 79,000, 15% have a hit. The source made the active and inactive calls. Rule as the data show it: active = growth inhibition above about 70%; inactive = the rest.
Quantity name: growth inhibition

Completed entries (count: 3):
Using the record for C[As+](c1ccccc1)(c1ccccc1)c1cccc2ccccc12 , state its measured growth inhibition. 10.2% (inactive)

Using the record for NC(=O)c1cc(N(CCBr)CCBr)c([N+](=O)[O-])cc1[N+](=O)[O-] , state its measured growth inhibition. 17.6% (inactive)

Using the record for CC(C)(C)C1COP(=O)(C(C)(C)C)OC1 (stereo not given) , state its measured growth inhibition. -12.6% (inactive)

Continuing:
Using the record for Nc1ccc(C(=O)O)cc1[As](O)O , state its measured growth inhibition. -15.1% (inactive)

Using the record for COc1ccc2c(c1O)C1=CC(=O)CC[C@]13CCN(C)[C@H]3C2 , state its measured growth inhibition. -14.1% (inactive)

----------
Overview of reported growth inhibition across a group of compounds:
Experiment: NCI Yeast Anticancer Drug Screen. Data for the mec2-1 strain (AID 157)
Conditions: S. cerevisiae mec2-1 strain, at 50.0 µM, stronger effect = higher value
About 79,000 compounds went through this panel and 15% of them were active in at least one assay; those are over-represented in the sample as a whole.
Please respond with the number in % and leave the unit unwritten.

Using the record for COC(C)C(O)(C(=O)OCC1=CCN2CCC(O)C12)C(C)(C)O (centres undefined) , state its measured growth inhibition. -5.35

Continuing:
Using the record for CC(C)C(Br)C(=O)O (centres undefined) , state its measured growth inhibition. -16.6

----------
Assay: NCI Yeast Anticancer Drug Screen. Data for the bub3 strain (AID 167)
Details: S. cerevisiae bub3 mutant strain, at 50.0 µM
Compounds without any hit were thinned out: in the full panel of roughly 79,000, 15% have a hit. Calls of active or inactive are those of the source. Cut-off read from the data, not from the text of the source: active = growth inhibition above about 70%; inactive = the rest.
Respond using exactly one of the listed classes: YES (active), NO (inactive)

Some entries whose results are on file:
Give the logged outcome of this assay for the following compound: NC(N)=Nc1nn[nH]n1 NO

Give the logged outcome of this assay for the following compound: CN(/N=C/c1ccnc2ccccc12)c1c([N+](=O)[O-])cc([N+](=O)[O-])cc1[N+](=O)[O-] NO

Give the logged outcome of this assay for the following compound: C=[CH][Pb]([CH]=C)([CH]=C)[O]C(C)=O YES

Give the logged outcome of this assay for the following compound: O=[N+]([O-])C(CO)CCCC(CO)[N+](=O)[O-] (stereo not drawn) NO

Give the logged outcome of this assay for the following compound: O=C1CCCCC1CN1CCCCC1 (stereo not drawn) NO

Give the logged outcome of this assay for the following compound: S=C(SP(SC(=S)N1CCCCC1)SC(=S)N1CCCCC1)N1CCCCC1 NO

Field: next compound
Give the logged outcome of this assay for the following compound: CCCCCCCC(=O)O.[Sn] NO

----------
Assay: NCI Yeast Anticancer Drug Screen. Data for the mec2-1 strain (AID 157)
Settings: S. cerevisiae mec2-1 strain, at 50.0 µM, stronger effect = higher value
About 79,000 compounds went through this panel and 15% of them were active in at least one assay; those are over-represented in the sample as a whole.
Quantity name: growth inhibition (%)
Please respond with the number in % and leave the unit unwritten.

Completed entries (count: 3):
Using the record for NC(Cc1ccc2c(c1)OCO2)c1ccccc1 (stereo not given) , state its measured growth inhibition. 9.05

Using the record for CCOP(C)(=O)C(N)Cc1ccc(OC)c(OC)c1 (stereo not given) , state its measured growth inhibition. -59.5

Using the record for CCC1(/C=C/C(C)C)C(=O)NC(=S)NC1=O , state its measured growth inhibition. 4.55

Continuing:
Using the record for CN=c1ssc(/N=C(\SC)N(C)C)[n+]1C , state its measured growth inhibition. -10.1

Using the record for CC1CN1P(=O)(N1CCc2ccccc21)N1CC1C (stereo not given) , state its measured growth inhibition. -7.9

Using the record for O=C(O)C(Cl)Cl , state its measured growth inhibition. -29.6

Using the record for CC(C)[C@@H]1ON1C(C)c1ccccc1 (stereo not given in full) , state its measured growth inhibition. -10.1

Using the record for CN(CCC(=O)O)C1=Nc2ccc(Cl)cc2C(c2ccccc2)=[N+]([O-])C1 , state its measured growth inhibition. 6.15

Using the record for O=C(NCCN1CCOCC1)c1cc(N(CCCl)CCCl)c([N+](=O)[O-])cc1[N+](=O)[O-] , state its measured growth inhibition. 7.45

Using the record for Cc1ccc(OP(=O)(Oc2ccc(C)cc2)Oc2ccc(C)cc2)cc1.Cc1ccc(OP(=O)(Oc2ccc(C)cc2)Oc2ccc(C)cc2)cc1.[Cl][Ni][Cl] , state its measured growth inhibition. 35.8

Using the record for O=P(Oc1ccccc1)(Oc1ccccc1)C(O)c1ccccc1 (stereo not given) , state its measured growth inhibition. 3.55

Using the record for c1ccc(NNc2ccccc2)cc1 , state its measured growth inhibition. 1.7

Using the record for O=[N+]([O-])c1cc(S(=O)(=O)O)cc([N+](=O)[O-])c1Cl , state its measured growth inhibition. 7

Using the record for N#C[CH2][Sn]([c]1ccccc1)([c]1ccccc1)[c]1ccccc1 , state its measured growth inhibition. 98.8

Using the record for CC1(C)CN1C1=C(F)C(=O)C(N2CC2(C)C)=C(F)C1=O , state its measured growth inhibition. 68.2

Using the record for O=c1[nH]c(=O)n(Cl)c(=O)n1Cl , state its measured growth inhibition. 23.1

Using the record for CC1CN=C(Nc2ccc(F)cc2F)S1 (stereo not given) , state its measured growth inhibition. -8.6

Using the record for O=C(O)C(Oc1nc(=S)[nH]c(=S)[nH]1)(c1ccc(Cl)cc1)c1ccc(Cl)cc1 , state its measured growth inhibition. 6.55

Using the record for N.N.N.N.N.NC(=O)c1nn[n-]n1.[Cl-].[Co+3] , state its measured growth inhibition. -3

Using the record for OC(CN1CC1)C(O)CN1CC1 (stereo not given) , state its measured growth inhibition. -26.2

Using the record for Nc1nc(N)c(N)c(N)n1 , state its measured growth inhibition. 1.8
